# System: Burkholderia
# TEST_CONTEXT: relative to DMSO control; 0.00 = growth with inhibitor equal to or greater than DMSO control
VALUE_KIND: % Growth Inhibition Endpoint (24 h) (%)
Please give a number only; it is taken to be in %.

Please list % Growth Inhibition Endpoint (24 h) recorded for the compound CCOC(=O)c1cnc(NCc2ccc(Cl)c(Cl)c2)[nH]c1=O
64.42

Please list % Growth Inhibition Endpoint (24 h) recorded for the compound O=C([O-])c1cnc(NCCc2ccc(Cl)c(Cl)c2)nc1[O-].[Na+].[Na+]
72.24

Please list % Growth Inhibition Endpoint (24 h) recorded for the compound NC(=O)c1c[nH]nc1NC(=O)c1cnc2sccn12
7.22

Please list % Growth Inhibition Endpoint (24 h) recorded for the compound CCOC(=O)c1cnc(Nc2ccc(-c3ccccc3)cc2)[nH]c1=O
5.07

Please list % Growth Inhibition Endpoint (24 h) recorded for the compound CCOC(=O)c1cnc(NCCc2ccc(F)cc2)[nH]c1=O
31.31

###

# TARGET_OF_ASSAY: IspF (Burkholderia pseudomallei, UniProt Q3JRA0)
# Sequence (Q3JRA0 whole entry, looked up): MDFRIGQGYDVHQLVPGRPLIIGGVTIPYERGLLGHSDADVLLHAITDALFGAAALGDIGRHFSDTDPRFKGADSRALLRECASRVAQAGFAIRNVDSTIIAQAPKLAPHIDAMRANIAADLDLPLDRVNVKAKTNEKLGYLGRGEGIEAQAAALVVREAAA
# PROCEDURE_TEXT: biochemical
# Type: binding
# TEST_CONTEXT: pH 7.4
VALUE_KIND: Kd

Recorded results for 9 compounds are shown here.
compound="NC(=O)c1c[nH]nc1NC(=O)c1c[nH]c2ncccc12 [HGN-0002]" measured_result="not soluble"
compound="OC(Cn1cnc(-c2ccccc2)c1-c1ccccc1)c1ccccc1 (stereo not shown) [HGN-0060]" measured_result="not soluble"
compound="CCOC(=O)c1cnc(Nc2ccc(N3CCOCC3)cc2)[nH]c1=O [HGN-0037]" measured_result="not soluble"
compound="CCOC(=O)c1cnc(Nc2cccc(-c3ccccc3)c2)[nH]c1=O [HGN-0039]" measured_result="non specific"
compound="O=C([O-])c1cnc(Nc2ccc3[nH]ncc3c2)nc1[O-].[Na+].[Na+] [HGN-0046]" measured_result="non specific"
compound="CC(C)n1cncc1-c1ccc(O)cc1 [HGN-0018]" measured_result="no binding"
compound="Cn1ccnc1C(O)Cc1ccccc1 (stereo not shown) [HGN-0061]" measured_result="no binding"
compound="CCOC(=O)c1cnc(Nc2ccc3[nH]ncc3c2)[nH]c1=O [HGN-0042]" measured_result="not soluble"
compound="CC(c1ccccc1)C(O)c1nccn1-c1ccccc1 (stereo not shown) [HGN-0062]" measured_result="no binding"

Now look at this one.
Please list Kd recorded for the compound Oc1ccc(-n2ccnc2)cc1 [HGN-0056]
no binding

###

# TARGET_OF_ASSAY: IspF (Burkholderia pseudomallei, UniProt Q3JRA0)
# PROCEDURE_TEXT: biochemical
# Type: binding
VALUE_KIND: pKd
By convention, pKd is the negative base-10 log of a molar concentration.

molecule=O=C([O-])c1cnc(NCCc2ccc(Cl)cc2)nc1[O-].[Na+].[Na+] target_of_assay="IspF (Burkholderia pseudomallei, UniProt Q3JRA0)" value_kind=pKd measured_result=3.52

Please list pKd recorded for the compound Nc1ccn([C@@H]2O[C@H](CNC(=O)c3ccncc3)[C@@H](O)[C@H]2O)c(=O)n1
3.75

Please list pKd recorded for the compound Oc1ccc(CCn2cncc2-c2ccc(O)cc2)cc1
3.31

Please list pKd recorded for the compound Oc1ccc(-c2cncn2Cc2ccco2)cc1
3.42

Please list pKd recorded for the compound Oc1ccc(-c2cncn2CCc2c[nH]c3ccccc23)cc1
3.69

###

# % Growth Inhibition Endpoint (24 h) values compiled below
# Test system: Burkholderia
# TEST_CONTEXT: relative to DMSO control; 0.00 = growth with inhibitor equal to or greater than DMSO control
Marks after values point to notes of the source that are not given here.

molecule=O=C([O-])c1cnc(NCc2ccc(F)cc2)nc1[O-].[Na+].[Na+] value_kind="% Growth Inhibition Endpoint (24 h)" measured_result="5.94 ± 5.46%"
molecule=Nc1ccn([C@@H]2O[C@H](CNC(=O)Cc3cn4ccsc4n3)[C@@H](O)[C@H]2O)c(=O)n1 value_kind="% Growth Inhibition Endpoint (24 h)" measured_result="0.00^b %"
molecule=CCOC(=O)c1cnc(NCc2cccc(Cl)c2)[nH]c1=O value_kind="% Growth Inhibition Endpoint (24 h)" measured_result="0.00^b %"
molecule=COc1cc(-c2cncn2CCc2c[nH]c3ccccc23)ccc1O value_kind="% Growth Inhibition Endpoint (24 h)" measured_result="0.00^b %"
molecule=Oc1ccc(-c2cncn2CCc2c(Cl)cccc2Cl)cc1 value_kind="% Growth Inhibition Endpoint (24 h)" measured_result="0.00^b %"

Please list % Growth Inhibition Endpoint (24 h) recorded for the compound CCOC(=O)c1cnc(NCCc2cccc(F)c2)[nH]c1=O
0.00^b %

Please list % Growth Inhibition Endpoint (24 h) recorded for the compound CCOC(=O)c1cnc(NCCc2ccccc2Cl)[nH]c1=O
0.00^b %

Please list % Growth Inhibition Endpoint (24 h) recorded for the compound CCOC(=O)c1cnc(NCc2cc(Cl)ccc2Cl)[nH]c1=O
3.47 ± 2.20%

Please list % Growth Inhibition Endpoint (24 h) recorded for the compound O=C([O-])c1cnc(NCCc2cccc(F)c2)nc1[O-].[Na+].[Na+]
20.46 ± 3.47%

###

# Tested on: Burkholderia
# TEST_CONTEXT: relative to DMSO control; 0.00 = growth with inhibitor equal to or greater than DMSO control
Everything with % Growth Inhibition Endpoint (24 h) lower than 30% is -1; everything else, including exactly 30%, is 1.

Below, 5 molecules whose answers are already recorded.
molecule="CCOC(=O)c1cnc(NCc2ccc(Cl)cc2)[nH]c1=O [HGN-0125]" classification=-1
molecule="O=C([O-])c1cnc(NCc2ccc(Cl)c(Cl)c2)nc1[O-].[Na+].[Na+] [HGN-0130]" classification=1
molecule="O=C([O-])c1cnc(NCc2cc(Cl)ccc2Cl)nc1[O-].[Na+].[Na+] [HGN-0128]" classification=1
molecule="O=C(O)c1cnc(Nc2ccc(-c3ccccc3)cc2)[nH]c1=O [HGN-0035]" classification=1
molecule="Oc1ccc(-c2cncn2Cc2cccc(F)c2)cc1 [HGN-0109]" classification=-1

State whether the measured % Growth Inhibition Endpoint (24 h) reaches 30%, counting equality as reaching it, for O=C([O-])c1cnc(Nc2ccc3[nH]ncc3c2)nc1[O-].[Na+].[Na+] [HGN-0046]
-1

State whether the measured % Growth Inhibition Endpoint (24 h) reaches 30%, counting equality as reaching it, for Oc1ccc(-c2cncn2Cc2ccc(Cl)c(Cl)c2)cc1 [HGN-0092]
-1

State whether the measured % Growth Inhibition Endpoint (24 h) reaches 30%, counting equality as reaching it, for O=C([O-])c1cnc(NCc2ccccc2Cl)nc1[O-].[Na+].[Na+] [HGN-0122]
-1

###

# TARGET_OF_ASSAY: IspF (Burkholderia pseudomallei, UniProt Q3JRA0)
# PROCEDURE_TEXT: biochemical
# Assay type: binding
# TEST_CONTEXT: pH 7.4
VALUE_KIND: Kd

molecule=Oc1ccc(-c2cncn2CCc2ccccc2)cc1 value_kind=Kd measured_result="no binding"
molecule=O=C(O)c1cnc(Nc2ccc(-c3ccccc3)cc2)[nH]c1=O value_kind=Kd measured_result="not soluble"
molecule=CCOC(=O)c1cnc(Nc2ccc3cn[nH]c3c2)[nH]c1=O value_kind=Kd measured_result="no binding"
molecule=CCOC(=O)c1cnc(NCCc2ccc(Cl)cc2)[nH]c1=O value_kind=Kd measured_result="not soluble"

###

# Tested on: Burkholderia
# TEST_CONTEXT: relative to DMSO control; 0.00 = growth with inhibitor equal to or greater than DMSO control
// thresholds for % Growth Inhibition Endpoint (24 h) classes: class 0: < 20%; class 1: ≥ 20% and < 30%; class 2: ≥ 30%

Below, 5 compounds whose answers are already recorded.
compound=Oc1ccc(-c2cncn2Cc2ccc(F)cc2)cc1 classification="class 2"
compound=O=C([O-])c1cnc(NCc2ccc(Cl)cc2)nc1[O-].[Na+].[Na+] classification="class 2"
compound=Oc1ccc(-c2cncn2CCc2cccc(F)c2)cc1 classification="class 0"
compound=O=C([O-])c1cnc(Nc2ccc(N3CCCCC3)cc2)nc1[O-].[Na+].[Na+] classification="class 1"
compound=O=C([O-])c1cnc(Nc2cccc(-c3ccccc3)c2)nc1[O-].[Na+].[Na+] classification="class 0"

Dear colleague, I would appreciate it if you could identify the bin for Oc1ccc(-c2cncn2CCc2ccc(F)cc2)cc1 and reply at your convenience.
class 2

Dear colleague, I would appreciate it if you could identify the bin for O=C([O-])c1cnc(NCc2ccccc2F)nc1[O-].[Na+].[Na+] and reply at your convenience.
class 1

Dear colleague, I would appreciate it if you could identify the bin for O=C([O-])c1cnc(NCCc2c(Cl)cccc2Cl)nc1[O-].[Na+].[Na+] and reply at your convenience.
class 0

Dear colleague, I would appreciate it if you could identify the bin for CCOC(=O)c1cnc(Nc2ccc(N3CCCCC3)cc2)[nH]c1=O and reply at your convenience.
class 2

Dear colleague, I would appreciate it if you could identify the bin for CCOC(=O)c1cnc(Nc2ccc3cn[nH]c3c2)[nH]c1=O and reply at your convenience.
class 0
